Origin of measurements: patent US7807162B2

tested on: platelet adhesion to collagen type III; assay: Inhibition of platelet adhesion by nanobodies in a flow (perfusion) chamber; format: cell-based, human; settings: 0.6 μg/ml nanobody, Table 41
READOUT_TYPE: % Platelet adhesion (%)
Just the number please, in %, no unit attached.

{"columns": ["MOLECULE", "READOUT_TYPE", "U", "RESULT_VALUE"],
 "data": [
  ["12B6H2-3a-12B6H2 (protein) VHH: EVQLVESGGGLVQPGGSLRLSCAASGRTFSYNPMGWFRQAPGKGREVVAAISRTGGSTYYARSVEGRFTISRDNAKRMVYLQMNSLRAEDTAVYYCAAAGVRAEDGRVRTLPSEYNFWGQGTQVTVSSAAAEVQLVESGGGLVQPGGSLRLSCAASGRTFSYNPMGWFRQAPGKGREVVAAISRTGGSTYYARSVEGRFTISRDNAKRMVYLQMNSLRAEDTAVYYCAAAGVRAEDGRVRTLPSEYNFWGQGTQVTVSS", "% Platelet adhesion", "%", 17]
]}

Annotate the molecule 12A2H4-3a-12A2H4 (protein) EVQLVESGGGLVQPGGSLRLSCAASGRTFSYNPMGWFRQAPGKGRELVAAISRTGGSTYYPDSVEGRFTISRDNAKRSVYLQMNSLRAEDTAVYYCAAAGVRAEDGRVRTLPSEYTFWGQGTQVTVSSAAAEVQLVESGGGLVQPGGSLRLSCAASGRTFSYNPMGWFRQAPGKGRELVAAISRTGGSTYYPDSVEGRFTISRDNAKRSVYLQMNSLRAEDTAVYYCAAAGVRAEDGRVRTLPSEYTFWGQGTQVTVSS with its measured % Platelet adhesion.
8

Annotate the molecule 12A2-3a-12A2 (protein) VHH: QVKLEESGGGLVQAGGALRLSCAASGRTFSYNPMGWFRQAPGKERDLVAAISRTGGSTYYPDSVEGRFTISRDNAKRMVYLQMNNLKPEDTAVYYCAAAGVRAEDGRVRTLPSEYTFWGQGTQVTVSSAAAEVQLVESGGGLVQAGGALRLSCAASGRTFSYNPMGWFRQAPGKERDLVAAISRTGGSTYYPDSVEGRFTISRDNAKRMVYLQMNNLKPEDTAVYYCAAAGVRAEDGRVRTLPSEYTFWGQGTQVTVSS with its measured % Platelet adhesion.
4
